# cond: 338.15 K, Maximal bubble pressure
The threshold is inclusive: surface tension liquid-gas of exactly 40 mN/m counts as 1.0; values below receive 0.0.

# count of solved cases: 3
CCCn1cc[n+](C)c1C.O=S(=O)([O-])O [2,3-dimethyl-1-propylimidazolium hydrogen sulfate]; 1.0
CCCCC[n+]1ccn(C)c1.O=P([O-])(O)O [1-methyl-3-pentylimidazolium dihydrogen phosphate]; 0.0
CCCCn1cc[n+](C)c1.O=C([O-])O [1-butyl-3-methylimidazolium hydrogen carbonate]; 0.0

Task: Please tell me: is the compound CCCCn1cc[n+](C)c1C.O=S(=O)([O-])O [1-butyl-2,3-dimethylimidazolium hydrogen sulfate] at or over 40 mN/m in terms of surface tension liquid-gas?
Result: 1.0

Task: Could you please find out whether CCn1cc[n+](C)c1C.O=S(=O)([O-])O [1-ethyl-2,3-dimethylimidazolium hydrogen sulfate] has surface tension liquid-gas that meets 40 mN/m or exceeds it?
Result: 1.0

Task: Decide: is the reported value of surface tension liquid-gas for CCC[n+]1ccn(C)c1.O=P([O-])(O)O [1-methyl-3-propylimidazolium dihydrogen phosphate] equal to or greater than 40 mN/m?
Result: 1.0

Task: Hello, I need to know if CCCCCn1cc[n+](C)c1.O=C([O-])O [3-methyl-1-pentylimidazolium hydrogen carbonate] has measured surface tension liquid-gas not below 40 mN/m. Thanks!
Result: 0.0
